Tested on: 135F2 (fetal-II hepatoblastoma organoid with high liver markers)
ASSAY DETAILS: area under the viability dose-response curve (AUC) (AUC (arbitrary units, max 500 = no viability loss)); higher = less sensitive (higher viability)
CONDITION NOTES: exposure time: 120 h; concentration range: 0.1 nM - 10 µM, 6 doses
MEASURED QUANTITY: area under the viability dose-response curve

In [3]: df
Out[3]:
                                   compound  quantitative_result
0  C[C@@H]1COCCN1c1cc(C2([S@](C)(=N)=O)CC2)nc(-c2cc[nH]c3nccc2-3)n1 [Ceralasertib]                  448
1  C=CCn1c(=O)c2cnc(Nc3ccc(N4CCN(C)CC4)cc3)nc2n1-c1cccc(C(C)(C)O)n1 [Adavosertib]                  353
2  C[C@]1(O)C[C@@H](c2nc(-c3ccc4ccc(-c5ccccc5)nc4c3)c3c(N)nccn32)C1 [Linsitinib]                  487
3  COc1cc2/c(=N/c3ccc(Br)cc3F)nc[nH]c2cc1OCC1CCN(C)CC1 [Vandetanib]                  428

---

Property: area under the viability dose-response curve; scope: individual compounds
Test system: 135F2
ASSAY DETAILS: area under the viability dose-response curve (AUC) (AUC (arbitrary units, max 500 = no viability loss)); higher = less sensitive (higher viability)
CONDITION NOTES: exposure time: 120 h; concentration range: 0.1 nM - 10 µM, 6 doses
MEASURED QUANTITY: area under the viability dose-response curve

                                    compound  result
 0  CS(=O)(=O)c1ccc(C(=O)Nc2ccc(Cl)c(-c3ccccn3)c2)c(Cl)c1 [Vismodegib]     473
 1  Nc1nc(=S)c2[nH]cnc2[nH]1 [6-Thioguanine]     390
 2  Cc1c(-c2c(-c3ccc(F)o3)sc3ncnc(O[C@H](Cc4ccccc4OCc4ccnn4CC(F)(F)F)C(=O)O)c23)ccc(OCCN2CCN(C)CC2)c1Cl     351
 3  CNC(=O)CN1CCC(Oc2cc3c(Nc4cccc(Cl)c4F)ncnc3cc2OC)CC1 [Sapitinib]     458
 4  CN(Cc1cnc2nc(N)nc(N)c2n1)c1ccc(C(=O)N[C@@H](CCC(=O)O)C(=O)O)cc1 [Methotrexate]     294
 5  O=C1c2c(O)ccc(O)c2C(=O)c2c(NCCNCCO)ccc(NCCNCCO)c21 [Mitoxantrone]     285
 6  Cc1nc(-c2cn3c(n2)-c2ccc(-c4cnn(C(C)(C)C(N)=O)c4)cc2OCC3)n(C(C)C)n1 [Taselisib]     435
 7  CCn1cc(-c2cccc(C(F)(F)F)c2)c2sc(C(=N)NC3CCS(=O)(=O)CC3)cc2c1=O [I-BRD9]     471
 8  Cn1cnc2c(F)c(Nc3ccc(Br)cc3F)c(C(=O)NOCCO)cc21 [Binimetinib]     396
 9  CC(C)(O)c1cc(Nc2cc(Oc3cn(C4CC4)nc3C3CCOCC3)ccn2)ccn1   > 500
10         S=P(N1CC1)(N1CC1)N1CC1 [ThioTEPA]     440
11  Nc1ncn([C@H]2C[C@H](O)[C@@H](CO)O2)c(=O)n1 [Decitabine (Guadecitabine)]     440
12  FC(F)(F)c1ccc(/C=C/c2nc(COc3ccc(CCCCn4ccnn4)cc3)co2)cc1 [Mubritinib]     334
13  CNC(=O)c1cc(Oc2ccc(NC(=O)Nc3ccc(Cl)c(C(F)(F)F)c3)c(F)c2)ccn1 [Regorafenib]     404
14  Cc1ncc(Cl)cc1NCc1ccc(C(=O)N[C@@H](CC2CCCC2)C(=O)NC2CC2)s1     476
15  CCC(CC)(NC(=O)C(C)C)C(=O)N[C@@H](CCCN=C(N)N)C(=O)NC1(C(=O)NC(c2ccc(F)cc2)c2ccc(F)cc2)CCCC1 [MM102]     497
16  COc1cc2c(Oc3ccc4[nH]c(C)cc4c3F)ncnc2cc1OCCCN1CCCC1 [Cediranib]     438

---

Test system: 17F1 (fetal-I hepatoblastoma organoid with intermediate liver markers)
ASSAY DETAILS: area under the viability dose-response curve (AUC) (AUC (arbitrary units, max 500 = no viability loss)); higher = less sensitive (higher viability)
CONDITION NOTES: exposure time: 120 h; concentration range: 0.1 nM - 10 µM, 6 doses
MEASURED QUANTITY: area under the viability dose-response curve

COMPOUND	QUALIFYING SIGN	QUANTITATIVE RESULT
CCCCCCCCCCCCCCCCCCOP(=O)([O-])OC1CC[N+](C)(C)CC1 [Perifosine]	>	500
Cc1ccc(NC(=O)c2ccc(CN3CCN(C)CC3)cc2)cc1Nc1nccc(-c2cccnc2)n1 [Imatinib]	=	478
CS(=O)(=O)CCNCc1ccc(-c2ccc3ncnc(Nc4ccc(OCc5cccc(F)c5)c(Cl)c4)c3c2)o1 [Lapatinib]	=	459
CC(C)c1cc(-c2n[nH]c(=O)n2-c2ccc3c(ccn3C)c2)c(O)cc1O [Ganetespib]	=	343
Cc1cc(C)cc(C(=O)NOCCCCCC(=O)NO)c1 [LMK-235]	=	418
CCn1cc(-c2ccnc3[nH]c(-c4cccc(CN(C)C)c4)cc23)c(-c2ccc(NC(=O)N(C)C)cc2)n1	=	477
CNc1nc(-c2nc3ccc(N4CCN(C)CC4)cc3n2Cc2ccccc2)cn2c(C)nnc12	=	460
Cc1sc2c(c1C)C(c1ccc(Cl)cc1)=N[C@@H](CC(N)=O)c1nnc(C)n1-2 [CPI-203]	=	467
O=c1nc(N2CCOCC2)oc2c(-c3cccc4c3sc3ccccc34)cccc12 [LTURM34]	=	490
C=CCn1c(=O)c2cnc(Nc3ccc(N4CCN(C)CC4)cc3)nc2n1-c1cccc(C(C)(C)O)n1 [Adavosertib]	=	383
Nc1cc(C(F)(F)F)c(-c2cc(N3CCOCC3)nc(N3CCOCC3)n2)cn1 [Buparlisib]	=	454
CC[C@H](NC(=O)[C@H](C)NC)C(=O)N1C[C@@H](O)C[C@H]1Cc1c(-c2[nH]c3cc(F)ccc3c2C[C@@H]2C[C@H](O)CN2C(=O)[C@H](CC)NC(=O)[C@H](C)NC)[nH]c2cc(F)ccc12 [Birinapant]	=	467
CCN1CCN(Cc2ccc(Nc3ncc(F)c(-c4cc(F)c5nc(C)n(C(C)C)c5c4)n3)nc2)CC1 [Abemaciclib]	=	452
CN(C)C/C=C/C(=O)Nc1ccc(C(=O)N2CCC[C@@H](Nc3ncc(Cl)c(-c4c[nH]c5ccccc45)n3)C2)cc1 [THZ531]	=	332
COc1cc2nccc(Oc3ccc(NC(=O)C4(C(=O)Nc5ccc(F)cc5)CC4)cc3)c2cc1OC [Cabozantinib]	>	500
COc1ccc([C@@H](O)c2cc(-c3ncnc4cc(N5CCOCC5)ccc34)c(F)cc2Cl)nn1 [Nedisertib]	=	486

---

Test system: 17F1
ASSAY DETAILS: area under the viability dose-response curve (AUC) (AUC (arbitrary units, max 500 = no viability loss)); higher = less sensitive (higher viability)
CONDITION NOTES: exposure time: 120 h; concentration range: 0.1 nM - 10 µM, 6 doses
Property: area under the viability dose-response curve; scope: individual molecules
MEASURED QUANTITY: area under the viability dose-response curve

COMPOUND STRUCTURE STRING	SYSTEM TESTED	QUALIFYING SIGN	QUANTITATIVE RESULT
C[C@@H]1COCCN1c1cc(C2([S@](C)(=N)=O)CC2)nc(-c2cc[nH]c3nccc2-3)n1	17F1	=	478
CC(C)NC[C@@H](C(=O)N1CCN(c2ncnc3c2[C@H](C)C[C@H]3O)CC1)c1ccc(Cl)cc1	17F1	=	495
Cc1cccc(-c2[nH]c(CNc3ccccc3F)nc2-c2ccc3ncnn3c2)n1	17F1	>	500
CNC(=O)c1ccc(-c2cnc3ncc(Cc4ccc5ncccc5c4)n3n2)cc1F	17F1	=	477
CNCc1ccc(-c2[nH]c3cc(F)cc4c3c2CCNC4=O)cc1	17F1	=	489
C=CC(=O)Nc1cc(Nc2nccc(-c3cn(C)c4ccccc34)n2)c(OC)cc1N(C)CCN(C)C	17F1	=	468
CN[C@@H](C)C(=O)N[C@H](C(=O)N1CCC[C@H]1C(=O)N[C@H]1c2ccccc2C[C@H]1OCC#CC#CCO[C@@H]1Cc2ccccc2[C@@H]1NC(=O)[C@@H]1CCCN1C(=O)[C@@H](NC(=O)[C@H](C)NC)C1CCCCC1)C1CCCCC1	17F1	=	446

---

Property: area under the viability dose-response curve; scope: individual compounds
Test system: 135F2
ASSAY DETAILS: area under the viability dose-response curve (AUC) (AUC (arbitrary units, max 500 = no viability loss)); higher = less sensitive (higher viability)
CONDITION NOTES: exposure time: 120 h; concentration range: 0.1 nM - 10 µM, 6 doses
MEASURED QUANTITY: area under the viability dose-response curve

COMPOUND	SYSTEM TESTED	QUALIFYING SIGN	QUANTITATIVE RESULT
Cn1cc(-n2cnc3c(NCc4nc5cc(Cl)c(Cl)cc5[nH]4)nc(N4CCOCC4)nc32)cn1	135F2	=	277
COc1ccc(-c2nc(N3CCOCC3)c3sc(CN(C)c4ncc(C(=O)NO)cn4)cc3n2)cn1 [Fimepinostat]	135F2	=	166
Cn1nnc2c(C(N)=O)ncn2c1=O [Temozolomide]	135F2	>	500
Cc1c2oc3c(C)ccc(C(=O)N[C@@H]4C(=O)N[C@H](C(C)C)C(=O)N5CCC[C@H]5C(=O)N(C)CC(=O)N(C)[C@@H](C(C)C)C(=O)O[C@@H]4C)c3nc-2c(C(=O)N[C@@H]2C(=O)N[C@H](C(C)C)C(=O)N3CCC[C@H]3C(=O)N(C)CC(=O)N(C)[C@@H](C(C)C)C(=O)O[C@@H]2C)c(N)c1=O	135F2	=	127
CC(C)c1c(-c2ccccc2)nc2c(C#N)c[nH]n2c1=O	135F2	>	500
CS(=O)(=O)CCNCc1ccc(-c2ccc3ncnc(Nc4ccc(OCc5cccc(F)c5)c(Cl)c4)c3c2)o1	135F2	=	474
O=C(NC1CCNCC1)c1n[nH]cc1NC(=O)c1c(Cl)cccc1Cl	135F2	=	396
